meta.source: PubChem BioAssay (NCI)

- Tested on: NCI/ADR-RES ovarian
- Protocol: NCI tumour cell line growth inhibition, 48 h
A collection of compounds and their measured TGI

These recorded examples may help you get a feel for the data.
>  <Compound>
Cc1cc(NC(=O)NC(=O)c2ccccc2N(C)C)ccc1Oc1ncc(Br)cn1

>  <Quantity Measured>
TGI

>  <Result>
24.6 µM

$$$$
>  <Compound>
NC(N)=N/N=C/c1c(-c2ccc(Cl)c([N+](=O)[O-])c2)nc2n1CCS2

>  <Quantity Measured>
TGI

>  <Result>
32.7 µM

$$$$
>  <Compound>
O=C(/C=C/c1cn(-c2ccccc2)nc1-c1ccc([N+](=O)[O-])cc1)c1ccc(Cl)cc1

>  <Quantity Measured>
TGI

>  <Result>
> 100 µM

$$$$
>  <Compound>
O=c1oc2ccc(Cl)cc2cc1-c1cn2ccsc2n1

>  <Quantity Measured>
TGI

>  <Result>
> 100 µM

$$$$
>  <Compound>
CCCCCCCCCCCCCCCCOCC(Cl)COP(=O)(O)OP(=O)(O)OCC1OC(n2cnc3c(N)ncnc32)C(O)C1O (configuration not stated)

>  <Quantity Measured>
TGI

>  <Result>
> 100 µM

$$$$

**Q:** What value of TGI has been reported for the following compound? N#CCCC1(CCC#N)CCCCCCC(CCC#N)(CCC#N)C(O)C1O (configuration not stated)
**A:** > 100 µM

**Q:** What value of TGI has been reported for the following compound? c1ccc([P+](c2ccccc2)(c2ccccc2)c2ccc([P+](c3ccccc3)(c3ccccc3)c3ccccc3)cc2)cc1
**A:** > 100 µM

**Q:** What value of TGI has been reported for the following compound? COc1ccc(NC(=O)c2sc3nc4c(cc3c2N)CCCC4)cc1
**A:** 3.85 µM
